System: recombinant PsauGOBP1
test_description: Fluorescence competitive-binding assay with 1-NPN as probe
Design: species or system Peridroma saucia
stated_conditions: sex pheromones; maximum concentration 12 (µM); remaining 1-NPN fluorescence; mean ± SE, three experiments
observable: Fluorescence (%) at Maximum Concentration

| compound_smiles | unit_string | readout_number |
| --- | --- | --- |
| CCCC/C=C\CCCCCCCCCCO | % | 70 |
| CCCCCC/C=C\CCCCCCCC=O | % | 82 |
| CCCC/C=C\CCCCCCCCCC=O | % | 89 |
| CCCC/C=C\CCCCCCCCCCOC(C)=O | % | 70 |
| CCCCCC/C=C\CCCCCCCCO | % | 76 |
| CCCC/C=C\CCCCCCOC(C)=O | % | 74 |
| CC/C=C\CCCCCCCCOC(C)=O | % | 72 |
| CCCC/C=C\CCCCCCCCOC(C)=O | % | 78 |

Ref: paper PMC8540349
